Assay: Stability in human liver microsomes by LC/MS/MS analysis
Assay type: ADME, microsome
Conditions: read-out: Stability
Where a SMILES comes first, the peptide text is derived from it. Bridges are numbered along the chain shown (N, C = ends). [ ]: non-standard residue; d: D form. The star is where a group is joined. X1 = c1ccc([C@@H]2CCCN2*)nc1; X7 = CC(C)CCN(C)*; Mpa = O=C(O)CCS
// reported CLint scaled for each item listed

CC[C@H](C)[C@@H]1NC(=O)[C@H](Cc2ccc(O)cc2)NC(=O)CCSSC[C@@H](C(=O)N2CCC[C@H]2C(=O)N(C)CCC(C)C)NC(=O)[C@H](CC(N)=O)NC(=O)[C@H](CCC(N)=O)NC1=O ([Mpa]YIQNCP-X7; disulfide 1-6) :: 25.5 mL/min/kg
CC[C@H](C)[C@@H]1NC(=O)[C@H](Cc2ccc(O)cc2)NC(=O)CCSSC[C@@H](C(=O)N2CCC[C@H]2C(=O)N[C@@H](CC(C)C)C(N)=O)NC(=O)[C@H](CC(N)=O)NC(=O)[C@H](CCC(N)=O)NC1=O :: < 8 mL/min/kg
CC[C@H](C)[C@@H]1NC(=O)[C@H](Cc2ccc(O)cc2)NC(=O)CCSSC[C@@H](C(=O)N2CCC[C@H]2c2ccccn2)NC(=O)[C@H](CC(N)=O)NC(=O)[C@H](CCC(N)=O)NC1=O ([Mpa]YIQNC-X1; disulfide 1-6) :: < 8 mL/min/kg

Here is the next item to consider.
What does the record list as CLint scaled for "CC[C@H](C)[C@@H]1NC(=O)[C@H](Cc2ccc(O)cc2)NC(=O)CCSSC[C@@H](C(=O)N2CCC[C@H]2C(N)=O)NC(=O)[C@H](CC(N)=O)NC(=O)[C@H](CCC(N)=O)NC1=O" ? < 8 mL/min/kg
